These records show Ki for Alpha-1D adrenergic receptor (Rattus norvegicus).

{"COMPOUND": "CCCS(=O)(=O)Nc1c(O)ccc2c1CCCC2C1=NCCN1 (stereo unspecified)", "QUALIFIER_SYMBOL": "=", "Ki [µM]": 1.86}
{"COMPOUND": "CCCS(=O)(=O)Nc1cccc2c1CCCC2c1c[nH]cn1 (stereo unspecified)", "QUALIFIER_SYMBOL": ">", "Ki [µM]": 10}
{"COMPOUND": "COC(=O)Nc1c(O)ccc2c1CCCC2C1=NCCN1 (stereo unspecified)", "QUALIFIER_SYMBOL": "=", "Ki [µM]": 8.51}
{"COMPOUND": "Cn1cnc(C2CCCc3c(NS(C)(=O)=O)cccc32)c1 (stereo unspecified)", "QUALIFIER_SYMBOL": "=", "Ki [µM]": 3.63}
{"COMPOUND": "CCS(=O)(=O)Nc1c(O)ccc2c1CCCC2C1=NCCN1 (stereo unspecified)", "QUALIFIER_SYMBOL": "=", "Ki [µM]": 2.19}
{"COMPOUND": "CN(c1c(O)ccc2c1CCCC2C1=NCCN1)S(C)(=O)=O (stereo unspecified)", "QUALIFIER_SYMBOL": "=", "Ki [µM]": 18.2}
{"COMPOUND": "O=S(=O)(CC(F)(F)F)Nc1cccc2c1CCCC2c1c[nH]cn1 (stereo unspecified)", "QUALIFIER_SYMBOL": ">", "Ki [µM]": 10}
{"COMPOUND": "Cn1cncc1C1CCCc2c(NS(C)(=O)=O)cccc21 (stereo unspecified)", "QUALIFIER_SYMBOL": ">", "Ki [µM]": 10}
{"COMPOUND": "NC(=O)Nc1c(O)ccc2c1CCCC2C1=NCCN1 (stereo unspecified)", "QUALIFIER_SYMBOL": "=", "Ki [µM]": 5.5}
{"COMPOUND": "CCS(=O)(=O)Nc1cccc2c1CCC[C@H]2c1c[nH]cn1", "QUALIFIER_SYMBOL": "=", "Ki [µM]": 1.07}
{"COMPOUND": "CCS(=O)(=O)Nc1cccc2c1CCCC2c1c[nH]c(C)n1 (stereo unspecified)", "QUALIFIER_SYMBOL": ">", "Ki [µM]": 10}

====

Below, each entry is listed with its recorded EC50.
# SYSTEM_TESTED: Alpha-1B adrenergic receptor (Rattus norvegicus, UniProt P15823)
# Sequence (P15823 whole entry): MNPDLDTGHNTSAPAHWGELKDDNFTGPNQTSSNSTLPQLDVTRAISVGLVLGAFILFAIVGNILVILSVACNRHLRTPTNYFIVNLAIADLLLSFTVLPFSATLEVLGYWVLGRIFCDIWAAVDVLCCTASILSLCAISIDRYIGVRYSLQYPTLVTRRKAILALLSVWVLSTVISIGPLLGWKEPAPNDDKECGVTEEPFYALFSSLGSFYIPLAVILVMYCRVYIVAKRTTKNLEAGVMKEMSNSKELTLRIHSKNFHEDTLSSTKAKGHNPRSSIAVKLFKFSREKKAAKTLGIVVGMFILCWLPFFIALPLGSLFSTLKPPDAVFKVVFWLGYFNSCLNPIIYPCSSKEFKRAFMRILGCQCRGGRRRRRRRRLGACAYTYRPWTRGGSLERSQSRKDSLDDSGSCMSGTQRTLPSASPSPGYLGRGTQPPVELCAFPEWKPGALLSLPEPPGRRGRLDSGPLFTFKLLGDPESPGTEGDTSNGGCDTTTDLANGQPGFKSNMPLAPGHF
# ASSAY_REMARKS: Agonist activity at alpha1B adrenoreceptor in Rattus norvegicus (rat) spleen

{"MOLECULE": "Nc1cccc2c1CCCC2c1c[nH]cn1 (centres undefined)", "U": "µM", "EC50": 0.977}
{"MOLECULE": "CCS(=O)(=O)Nc1cccc2c1CCC[C@H]2c1c[nH]cn1", "U": "µM", "EC50": 3.8}
{"MOLECULE": "CC(C)S(=O)(=O)Nc1cccc2c1CCCC2c1c[nH]cn1 (centres undefined)", "U": "µM", "EC50": 14.1}
{"MOLECULE": "CC(N)C(O)c1ccccc1 (centres undefined) [PHENYLPROPANOLAMINE]", "U": "µM", "EC50": 282}

====

Below, each entry is listed with its recorded pKi.
# SYSTEM_TESTED: Alpha-1B adrenergic receptor (Mesocricetus auratus)
# Sequence (P18841 whole entry): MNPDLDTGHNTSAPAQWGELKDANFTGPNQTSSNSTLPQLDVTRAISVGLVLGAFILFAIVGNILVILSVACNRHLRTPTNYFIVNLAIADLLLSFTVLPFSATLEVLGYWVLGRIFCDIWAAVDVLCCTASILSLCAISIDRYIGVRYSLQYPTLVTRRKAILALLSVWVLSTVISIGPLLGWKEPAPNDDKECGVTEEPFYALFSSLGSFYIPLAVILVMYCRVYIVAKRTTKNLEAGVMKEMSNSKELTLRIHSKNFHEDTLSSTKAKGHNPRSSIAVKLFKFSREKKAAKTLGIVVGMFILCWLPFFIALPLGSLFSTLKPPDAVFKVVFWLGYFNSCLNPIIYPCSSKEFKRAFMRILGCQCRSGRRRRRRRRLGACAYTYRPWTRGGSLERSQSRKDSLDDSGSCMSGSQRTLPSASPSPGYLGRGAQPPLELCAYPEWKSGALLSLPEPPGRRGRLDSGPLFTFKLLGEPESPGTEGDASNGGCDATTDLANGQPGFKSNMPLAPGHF
pKi: −log10 of the molar value.

{"COMPOUND": "COc1ccc2c(c1NS(C)(=O)=O)CCCC2C1=NCCN1 (centres undefined)", "QUALIFIER_SYMBOL": "=", "pKi": 5.46}
{"COMPOUND": "CCS(=O)(=O)Nc1cccc2c1CCC[C@H]2c1c[nH]cn1", "QUALIFIER_SYMBOL": "=", "pKi": 5.88}
{"COMPOUND": "CC(C)S(=O)(=O)Nc1cccc2c1CCCC2c1c[nH]cn1 (centres undefined)", "QUALIFIER_SYMBOL": "<", "pKi": 5.00}
{"COMPOUND": "Cn1cncc1C1CCCc2c(NS(C)(=O)=O)cccc21 (centres undefined)", "QUALIFIER_SYMBOL": "<", "pKi": 5.00}
{"COMPOUND": "Cn1cnc(C2CCCc3c(NS(C)(=O)=O)cccc32)c1 (centres undefined)", "QUALIFIER_SYMBOL": "=", "pKi": 5.98}
{"COMPOUND": "CCS(=O)(=O)Nc1c(O)ccc2c1CCCC2C1=NCCN1 (centres undefined)", "QUALIFIER_SYMBOL": "=", "pKi": 5.37}
{"COMPOUND": "O=S(=O)(Nc1c(O)ccc2c1CCCC2C1=NCCN1)C(F)(F)F (centres undefined)", "QUALIFIER_SYMBOL": "<", "pKi": 5.50}
{"COMPOUND": "CCCS(=O)(=O)Nc1c(O)ccc2c1CCCC2C1=NCCN1 (centres undefined)", "QUALIFIER_SYMBOL": "=", "pKi": 5.51}
{"COMPOUND": "COC(=O)Nc1c(O)ccc2c1CCCC2C1=NCCN1 (centres undefined)", "QUALIFIER_SYMBOL": "=", "pKi": 5.00}
{"COMPOUND": "O=S(=O)(CC(F)(F)F)Nc1cccc2c1CCCC2c1c[nH]cn1 (centres undefined)", "QUALIFIER_SYMBOL": "<", "pKi": 5.00}
{"COMPOUND": "CCCS(=O)(=O)Nc1cccc2c1CCCC2c1c[nH]cn1 (centres undefined)", "QUALIFIER_SYMBOL": "<", "pKi": 5.00}
{"COMPOUND": "O=S(=O)(Nc1cccc2c1CCCC2c1c[nH]cn1)C1CC1 (centres undefined)", "QUALIFIER_SYMBOL": "<", "pKi": 5.00}
{"COMPOUND": "CCS(=O)(=O)Nc1cccc2c1CCCC2c1c[nH]c(C)n1 (centres undefined)", "QUALIFIER_SYMBOL": "<", "pKi": 5.00}
{"COMPOUND": "NC(=O)Nc1c(O)ccc2c1CCCC2C1=NCCN1 (centres undefined)", "QUALIFIER_SYMBOL": "=", "pKi": 5.00}

====

# SYSTEM_TESTED: Alpha-1B adrenergic receptor (Rattus norvegicus)
# ASSAY_REMARKS: Antagonist activity at alpha1B adrenoreceptor in Rattus norvegicus (rat) spleen assessed as inhibition of phenylephrine-indued contraction
# SETTINGS: read-out: pA2 (converted)

{"COMPOUND": "CCS(=O)(=O)Nc1cccc(Cc2c[nH]cn2)c1C", "SYSTEM_TESTED": "Alpha-1B adrenergic receptor (Rattus norvegicus)", "Kb": "15.1 µM"}
{"COMPOUND": "CCS(=O)(=O)Nc1cccc(Cc2c[nH]cn2)c1", "SYSTEM_TESTED": "Alpha-1B adrenergic receptor (Rattus norvegicus)", "Kb": "4.07 µM"}
{"COMPOUND": "CCS(=O)(=O)Nc1cccc2c1CCC[C@H]2c1c[nH]cn1", "SYSTEM_TESTED": "Alpha-1B adrenergic receptor (Rattus norvegicus)", "Kb": "13.8 µM"}
{"COMPOUND": "O=S(=O)(CC(F)(F)F)Nc1cccc2c1CCCC2c1c[nH]cn1 (centres undefined)", "SYSTEM_TESTED": "Alpha-1B adrenergic receptor (Rattus norvegicus)", "Kb": "42.7 µM"}

====

# SYSTEM_TESTED: Alpha-1D adrenergic receptor (Rattus norvegicus, UniProt P23944)
# Sequence (P23944 whole entry): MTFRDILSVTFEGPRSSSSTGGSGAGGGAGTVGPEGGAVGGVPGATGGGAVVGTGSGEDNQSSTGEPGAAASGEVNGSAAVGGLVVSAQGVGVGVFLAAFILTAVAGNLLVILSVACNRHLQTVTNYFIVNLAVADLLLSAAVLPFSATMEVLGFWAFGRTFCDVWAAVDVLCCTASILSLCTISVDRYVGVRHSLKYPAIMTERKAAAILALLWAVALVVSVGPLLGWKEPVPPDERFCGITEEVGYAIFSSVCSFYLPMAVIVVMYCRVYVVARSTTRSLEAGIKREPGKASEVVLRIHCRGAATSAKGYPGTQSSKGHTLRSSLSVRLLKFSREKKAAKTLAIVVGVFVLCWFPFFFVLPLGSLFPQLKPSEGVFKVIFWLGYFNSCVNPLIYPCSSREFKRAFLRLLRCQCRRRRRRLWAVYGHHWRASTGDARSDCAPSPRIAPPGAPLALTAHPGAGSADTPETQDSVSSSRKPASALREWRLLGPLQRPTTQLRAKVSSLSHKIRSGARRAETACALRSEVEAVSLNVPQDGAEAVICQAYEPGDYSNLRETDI
# ASSAY_REMARKS: Antagonist activity at alpha1D adrenoreceptor in Rattus norvegicus (rat) aorta assessed as inhibition of phenylephrine-indued contraction
# SETTINGS: read-out: pA2 (converted)

{"MOLECULE": "CCS(=O)(=O)Nc1cccc(Cc2c[nH]cn2)c1C", "Kb [µM]": 5.89}
{"MOLECULE": "O=S(=O)(CC(F)(F)F)Nc1cccc2c1CCCC2c1c[nH]cn1 (centres undefined)", "Kb [µM]": 27.5}
{"MOLECULE": "CCS(=O)(=O)Nc1cccc(Cc2c[nH]cn2)c1", "Kb [µM]": 0.661}
{"MOLECULE": "CCS(=O)(=O)Nc1cccc2c1CCC[C@H]2c1c[nH]cn1", "Kb [µM]": 7.24}
